Each record here notes measured Liver Microsome Stability-% Left after 30 min w/ NADPH (%) Monkey.
- experiment: In Vitro Microsome Stability Assay (monkey)
- Type: in vitro ADME
- assay conditions: monkey liver microsomes, 30 min w/ NADPH
Give just the numeric value; % need not be written.

# example entries with known answers
C[C@H]1CN(S(=O)(=O)c2ccc(N(C)C)cc2)CCCN(CC2CCCCC2)CCCN(S(=O)(=O)N(C)Cc2ccccc2)C1: 1.23
Cc1ccc(N2CCN(S(=O)(=O)N3CCCN(CC4CCCCC4)CCCN(S(=O)(=O)c4ccc(N(C)C)cc4)C[C@H](C)C3)CC2)cc1: 37

The record that follows has no Liver Microsome Stability-% Left after 30 min w/ NADPH (%) Monkey shown yet.
Bench note: what Liver Microsome Stability-% Left after 30 min w/ NADPH (%) Monkey did COc1ccccc1N1CCN(S(=O)(=O)N2CCCN(CC3CCCCC3)CCCN(S(=O)(=O)c3ccc(N(C)C)cc3)C[C@H](C)C2)CC1 show? 10.2
